# tested on: Vascular endothelial growth factor receptor 2 (Homo sapiens, UniProt P35968)
# Sequence (P35968 whole entry): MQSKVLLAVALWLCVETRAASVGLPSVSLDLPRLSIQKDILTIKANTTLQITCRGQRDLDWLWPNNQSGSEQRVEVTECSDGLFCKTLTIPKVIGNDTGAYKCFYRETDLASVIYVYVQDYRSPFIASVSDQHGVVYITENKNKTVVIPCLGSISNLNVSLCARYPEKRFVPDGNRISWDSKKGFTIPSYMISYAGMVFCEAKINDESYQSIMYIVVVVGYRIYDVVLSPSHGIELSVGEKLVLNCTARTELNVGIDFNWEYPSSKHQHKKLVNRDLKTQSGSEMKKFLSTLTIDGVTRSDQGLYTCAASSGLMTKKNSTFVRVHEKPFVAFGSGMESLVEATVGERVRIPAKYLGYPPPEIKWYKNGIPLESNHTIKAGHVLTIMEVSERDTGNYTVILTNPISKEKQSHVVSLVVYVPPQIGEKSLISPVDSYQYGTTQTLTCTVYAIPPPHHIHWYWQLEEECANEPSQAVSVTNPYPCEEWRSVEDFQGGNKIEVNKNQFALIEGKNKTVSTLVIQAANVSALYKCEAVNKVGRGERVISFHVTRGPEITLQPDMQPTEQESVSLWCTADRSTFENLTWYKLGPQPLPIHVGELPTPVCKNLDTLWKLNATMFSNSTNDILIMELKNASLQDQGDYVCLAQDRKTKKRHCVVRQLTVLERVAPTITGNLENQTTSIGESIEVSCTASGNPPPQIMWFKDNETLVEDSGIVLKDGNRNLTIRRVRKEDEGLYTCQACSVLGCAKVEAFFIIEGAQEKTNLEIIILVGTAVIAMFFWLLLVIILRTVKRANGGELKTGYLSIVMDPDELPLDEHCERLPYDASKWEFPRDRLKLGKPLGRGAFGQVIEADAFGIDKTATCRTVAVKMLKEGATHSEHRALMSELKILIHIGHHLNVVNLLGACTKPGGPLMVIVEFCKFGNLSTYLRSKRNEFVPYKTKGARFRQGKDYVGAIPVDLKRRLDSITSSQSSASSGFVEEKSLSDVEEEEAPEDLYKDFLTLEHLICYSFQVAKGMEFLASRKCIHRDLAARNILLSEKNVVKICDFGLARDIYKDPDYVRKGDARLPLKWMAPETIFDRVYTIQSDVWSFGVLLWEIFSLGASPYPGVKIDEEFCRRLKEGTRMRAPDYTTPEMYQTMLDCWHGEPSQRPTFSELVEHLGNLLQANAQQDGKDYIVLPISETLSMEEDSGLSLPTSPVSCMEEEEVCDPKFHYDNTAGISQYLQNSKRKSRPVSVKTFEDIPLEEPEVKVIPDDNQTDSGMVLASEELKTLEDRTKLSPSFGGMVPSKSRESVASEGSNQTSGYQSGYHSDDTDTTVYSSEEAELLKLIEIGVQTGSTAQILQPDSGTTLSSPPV
# assay summary: Inhibition of human VEGFR2 expressed in Sf9 cells at 100 uM; values are per cent of control
Response field label takes Fulfilled when residual activity is strictly below 40% and Not fulfilled in all other cases.

smi=COc1ccc(C2=C(c3cc(OC)c(OC)c(OC)c3)C(=O)NC2=O)cc1 tested_on="Vascular endothelial growth factor receptor 2 (Homo sapiens, UniProt P35968)" group_label="Not fulfilled"

Input: Bench note: check whether COc1ccc(C2=C(c3c[nH]c4ccccc34)C(=O)NC2=O)cc1 shows residual activity below 40%
Output: Fulfilled

Input: Consider next the compound COc1cc(C2=C(c3cc4ccccc4[nH]3)C(=O)NC2=O)cc(OC)c1OC in the same way.
Output: Not fulfilled

Input: Consider next the compound O=C1NC(=O)C(c2c[nH]c3ccccc23)=C1c1ccccc1 in the same way.
Output: Fulfilled

Input: Consider next the compound COc1cc(C2=C(c3c(C)[nH]c4ccccc34)C(=O)NC2=O)cc(OC)c1OC in the same way.
Output: Not fulfilled
